Target: calpain I (human μ-calpain) (Homo sapiens, UniProt P07384)
Construct: Human μ-calpain is isolated from erythrocytes
Sequence (P07384 whole entry): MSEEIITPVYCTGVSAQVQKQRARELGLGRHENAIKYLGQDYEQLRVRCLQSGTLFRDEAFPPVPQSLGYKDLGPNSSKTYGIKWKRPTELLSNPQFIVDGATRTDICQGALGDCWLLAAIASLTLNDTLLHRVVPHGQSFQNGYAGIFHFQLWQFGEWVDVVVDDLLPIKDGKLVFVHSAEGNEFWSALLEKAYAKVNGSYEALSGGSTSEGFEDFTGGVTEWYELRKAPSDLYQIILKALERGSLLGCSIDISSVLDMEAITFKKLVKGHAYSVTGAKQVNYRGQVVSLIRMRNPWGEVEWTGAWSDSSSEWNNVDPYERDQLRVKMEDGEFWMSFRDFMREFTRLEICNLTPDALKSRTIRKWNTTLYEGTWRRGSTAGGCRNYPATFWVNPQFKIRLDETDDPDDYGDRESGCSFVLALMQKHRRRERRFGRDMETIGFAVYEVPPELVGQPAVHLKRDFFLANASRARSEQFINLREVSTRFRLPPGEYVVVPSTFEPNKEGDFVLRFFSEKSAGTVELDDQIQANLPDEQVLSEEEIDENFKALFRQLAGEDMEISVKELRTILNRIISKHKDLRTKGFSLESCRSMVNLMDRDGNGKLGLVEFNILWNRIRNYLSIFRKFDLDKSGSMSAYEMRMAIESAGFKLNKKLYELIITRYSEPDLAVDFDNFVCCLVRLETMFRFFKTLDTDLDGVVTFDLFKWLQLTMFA
Sequence (P04632 whole entry partner): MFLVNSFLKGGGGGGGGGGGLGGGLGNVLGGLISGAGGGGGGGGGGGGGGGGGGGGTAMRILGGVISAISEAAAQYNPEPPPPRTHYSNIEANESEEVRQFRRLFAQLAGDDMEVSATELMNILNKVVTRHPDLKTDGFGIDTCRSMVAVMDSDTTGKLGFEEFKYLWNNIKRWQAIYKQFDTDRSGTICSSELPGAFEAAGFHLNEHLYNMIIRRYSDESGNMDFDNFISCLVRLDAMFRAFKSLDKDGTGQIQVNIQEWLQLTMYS
Assay: Calpain I and II assay (fluorogenic substrate Suc-Leu-Tyr-AMC)
Conditions: calpain I; inferred from more than 50% inhibition at 1 μM
Protocol: The inhibitory effect of the benzamides I has been determined using enzyme assays known from the literature, determining as criterion of effect a concentration of the inhibitor at which 50% of the enzyme activity is inhibited (=IC50). […] In a test mixture, 10 μl of substrate (250 μM final) and then 10 μl of μ-calpain (2 μg/ml final, i.e. 18 nM) are added to a 1 ml cuvette containing buffer. The calpain-mediated cleavage of the substrate is measured for from 15 to 20 min. […]
pKi: −log10 of the molar value.
assay endpoint: pKi

Problem: Recorded pKi for O=C(N[C@@H](Cc1ccccc1)C(=O)CNS(=O)(=O)c1ccccc1)c1cccc(NS(=O)(=O)c2ccc3ccccc3c2)c1 [Example 1] , please?
Solution: > 6.00

# credit: patent US6436925B1
